Entries annotated with measured self-cleavage
B1: LINE1-full (parent)
chain: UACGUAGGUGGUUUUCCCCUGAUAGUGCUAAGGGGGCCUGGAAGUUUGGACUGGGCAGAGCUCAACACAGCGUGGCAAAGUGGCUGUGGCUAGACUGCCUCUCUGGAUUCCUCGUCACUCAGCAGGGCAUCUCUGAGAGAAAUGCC

- Variants of: B1
- PROCEDURE DETAILS: self-cleavage, relative activity (ratio to wild type); higher = more cleavage; in vitro, sequencing; the parent is a self-cleaving ribozyme
READOUT NAME: self-cleavage

MUTANT NAME: G54A A117U
RECORDED MEASUREMENT: 1.1
--
MUTANT NAME: A50G A77G
RECORDED MEASUREMENT: 1.42
--
MUTANT NAME: C113A A140G
RECORDED MEASUREMENT: 1.06
--
MUTANT NAME: C3U U14C
RECORDED MEASUREMENT: 0.81
--
MUTANT NAME: U91G C146U
RECORDED MEASUREMENT: 0.1
--
MUTANT NAME: G32A A65G
RECORDED MEASUREMENT: 0.11
--
MUTANT NAME: U52A U104G
RECORDED MEASUREMENT: 1.53
--
MUTANT NAME: U46C C120A
RECORDED MEASUREMENT: 0.85
--
MUTANT NAME: G33A C76U
RECORDED MEASUREMENT: 1.87
--
MUTANT NAME: U15A U108C
RECORDED MEASUREMENT: 1.49
--
MUTANT NAME: U96A U134C
RECORDED MEASUREMENT: 0.08
